Listing: Classification of selected binders
tested target: T1, GST-AIPC PDZ domain 1 (Homo sapiens (Human)), O15018
T1 chain: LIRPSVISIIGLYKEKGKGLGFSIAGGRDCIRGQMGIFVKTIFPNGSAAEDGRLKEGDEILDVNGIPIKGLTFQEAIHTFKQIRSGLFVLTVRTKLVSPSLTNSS
procedure details: G' assay; note: key of the grades not given here

- binder: "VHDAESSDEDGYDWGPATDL (modifications not checked) [zona occludens 3 (ZO-3) PL peptide]"
  Classification (A450 class): 1
- binder: "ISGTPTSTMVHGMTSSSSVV (modifications not checked) [Clasp-2]"
  Classification (A450 class): 1
- binder: "VISKATPALPTVSISSSAEV (modifications not checked) [Clasp-1]"
  Classification (A450 class): 1
- binder: "QQYQQRQSVIFHKRAPEQAL (modifications not checked) [muscarinic Ach receptor M4]"
  Classification (A450 class): 1
- binder: "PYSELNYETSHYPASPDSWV (modifications not checked) [catenin - delta 2]"
  Classification (A450 class): 2
